- Test system: SNK-6 (IL-2 2.5 ng/mL);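 further: normalised to DMSO-only wells as negative and benzethonium chloride as positive control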
- ASSAY TEXT: percent inhibition of viability; higher = more inhibition
- CONDITION NOTES: 72 h; 1 nM
Listed molecules paired with reported percent inhibition of viability
Numbers only here, please. The scale is %.

INSERT INTO assay_data (molecule, test_system, observed_property, units_text, measurement) VALUES
  ('C#Cc1cccc(Nc2ncnc3cc4c(cc23)OCCOCCOCCO4)c1 [Icotinib] (max concentration tested 10000 nM)', 'SNK-6 (IL-2 2.5 ng/mL)', 'percent inhibition of viability', '%', 8.75),
  ('CCn1c(-c2nonc2N)nc2cnc(Oc3cccc(NC(=O)c4ccc(OCCN5CCOCC5)cc4)c3)cc21 (max concentration tested 10000 nM)', 'SNK-6 (IL-2 2.5 ng/mL)', 'percent inhibition of viability', '%', -9.46),
  ('COc1cc(Nc2ncc(F)c(Nc3ccc4c(n3)NC(=O)C(C)(C)O4)n2)cc(OC)c1OC [Tamatinib] (max concentration tested 10000 nM)', 'SNK-6 (IL-2 2.5 ng/mL)', 'percent inhibition of viability', '%', 2.85),
  ('Cn1c(=O)c(F)c(Nc2ccc(I)cc2F)c2c(=O)n(C[C@@H](O)CO)cnc21 [TAK-733] (max concentration tested 1000 nM)', 'SNK-6 (IL-2 2.5 ng/mL)', 'percent inhibition of viability', '%', 0.96),
  ('COc1cc(O)c2c(c1)/C=C/C[C@H](O)[C@H](O)C(=O)/C=C\C[C@H](C)OC2=O [(5Z)-7-Oxozeaenol] (max concentration tested 10000 nM)', 'SNK-6 (IL-2 2.5 ng/mL)', 'percent inhibition of viability', '%', -2.4);

Now examine the next entry.
Provide percent inhibition of viability value for the following molecule: COC(=O)C[C@](O)(CCCC(C)(C)O)C(=O)O[C@@H]1C(OC)=C[C@]23CCCN2CCc2cc4c(cc2[C@H]13)OCO4 [Omacetaxine] (max concentration tested 10000 nM)
0.3
